system: Staphylococcus epidermidis; assay: Antibacterial activity against methicillin-sensitive Staphylococcus epidermidis 01-1005 by broth microdilution method; type: functional
Some compounds, each annotated with its measured MIC.
Only the number, expressed in µg/mL, is required.

C=CCO[C@@H]1C[C@@H](C)C(=O)[C@H](C)[C@H]2OC(=O)O[C@]2(C)[C@@H](CC)OC(=O)[C@H](C)[C@@H](OC(=O)Cc2ccc3c(c2)OCO3)[C@H](C)[C@H]1O[C@@H]1O[C@H](C)C[C@H](N(C)C)[C@H]1O	0.5

Request: Which MIC reading was recorded for the compound C=CCO[C@@H]1C[C@@H](C)C(=O)[C@H](C)[C@H]2OC(=O)O[C@]2(C)[C@@H](CC)OC(=O)[C@H](C)[C@@H](OC(=O)Cc2ccc(Cl)cc2)[C@H](C)[C@H]1OC1O[C@H](C)C[C@H](N(C)C)[C@H]1O (stereo not given in full) ?
Result: 2

Request: Which MIC reading was recorded for the compound C=CCO[C@@H]1C[C@@H](C)C(=O)[C@H](C)[C@H]2OC(=O)O[C@]2(C)[C@@H](CC)OC(=O)[C@H](C)[C@@H](OC(=O)Cc2ccccc2Cl)[C@H](C)[C@H]1OC1O[C@H](C)C[C@H](N(C)C)[C@H]1O (stereo not given in full) ?
Result: 1

Request: Which MIC reading was recorded for the compound C=CCO[C@@H]1C[C@@H](C)C(=O)[C@H](C)[C@H]2OC(=O)O[C@]2(C)[C@@H](CC)OC(=O)[C@H](C)[C@@H](OC(=O)Cc2c[nH]c3ccccc23)[C@H](C)C1O[C@@H]1O[C@H](C)C[C@H](N(C)C)[C@H]1O (stereo not given in full) ?
Result: 4

Request: Which MIC reading was recorded for the compound `C=CCO[C@@H]1C[C@@H](C)C(=O)[C@H](C)[C@H]2OC(=O)O[C@]2(C)[C@@H](CC)OC(=O)[C@H](C)[C@@H](OC(=O)Cc2cccnc2)[C@H](C)[C@H]1O[C@@H]1O[C@H](C)C[C@H](N(C)C)[C@H]1O` ?
Result: 0.5

---

system: Streptococcus pneumoniae; assay: Antibacterial activity against erythromycin-resistant Streptococcus pneumoniae 03-458 by broth microdilution method; assay type: functional
Some compounds, each annotated with its measured MIC.
A bare number is not enough; add the unit after it.

C=CCO[C@@H]1C[C@@H](C)C(=O)[C@H](C)[C@H]2OC(=O)O[C@]2(C)[C@@H](CC)OC(=O)[C@H](C)[C@@H](OC(=O)Cc2ccccc2Cl)[C@H](C)[C@H]1OC1O[C@H](C)C[C@H](N(C)C)[C@H]1O (some centres undefined)	2 µg/mL
C=CCO[C@@H]1C[C@@H](C)C(=O)[C@H](C)[C@H]2OC(=O)O[C@]2(C)[C@@H](CC)OC(=O)[C@H](C)[C@@H](OC(=O)COc2ccccc2)[C@H](C)[C@H]1OC1O[C@H](C)C[C@H](N(C)C)[C@H]1O (some centres undefined)	16 µg/mL

Request: Which MIC reading was recorded for the compound `C=CCO[C@@H]1C[C@@H](C)C(=O)[C@H](C)[C@H]2OC(=O)O[C@]2(C)[C@@H](CC)OC(=O)[C@H](C)[C@@H](OC(=O)CCc2c[nH]c3ccccc23)[C@H](C)[C@H]1O[C@@H]1O[C@H](C)C[C@H](N(C)C)[C@H]1O` ?
Result: 32 µg/mL

Request: Which MIC reading was recorded for the compound `C=CCO[C@@H]1C[C@@H](C)C(=O)[C@H](C)[C@H]2OC(=O)O[C@]2(C)[C@@H](CC)OC(=O)[C@H](C)[C@@H](OC(=O)Cc2cccc(F)c2)[C@H](C)[C@H]1O[C@@H]1O[C@H](C)C[C@H](N(C)C)[C@H]1O` ?
Result: 2 µg/mL

Request: Which MIC reading was recorded for the compound C=CCO[C@@H]1C[C@@H](C)C(=O)[C@H](C)[C@H]2OC(=O)O[C@]2(C)[C@@H](CC)OC(=O)[C@H](C)[C@@H](OC(=O)Cc2ccc(Cl)cc2)[C@H](C)[C@H]1OC1O[C@H](C)C[C@H](N(C)C)[C@H]1O (some centres undefined) ?
Result: 8 µg/mL

Request: Which MIC reading was recorded for the compound CC[C@H]1OC(=O)[C@H](C)[C@@H](O[C@H]2C[C@@](C)(OC)[C@@H](O)[C@H](C)O2)[C@H](C)[C@@H](O[C@@H]2O[C@H](C)C[C@H](N(C)C)[C@H]2O)[C@](C)(OC)C[C@@H](C)C(=O)[C@H](C)[C@@H](O)[C@]1(C)O [CLARITHROMYCIN] ?
Result: 256 µg/mL

Request: Which MIC reading was recorded for the compound `C=CCO[C@@H]1C[C@@H](C)C(=O)[C@H](C)[C@H]2OC(=O)O[C@]2(C)[C@@H](CC)OC(=O)[C@H](C)[C@@H](OC(=O)Cc2ccc3c(c2)OCO3)[C@H](C)[C@H]1O[C@@H]1O[C@H](C)C[C@H](N(C)C)[C@H]1O` ?
Result: 2 µg/mL

Request: Which MIC reading was recorded for the compound C=CCO[C@@H]1C[C@@H](C)C(=O)[C@H](C)[C@H]2OC(=O)O[C@]2(C)[C@@H](CC)OC(=O)[C@H](C)[C@@H](OC(=O)Cc2c[nH]c3ccccc23)[C@H](C)C1O[C@@H]1O[C@H](C)C[C@H](N(C)C)[C@H]1O (some centres undefined) ?
Result: 32 µg/mL

Request: Which MIC reading was recorded for the compound `C=CCO[C@@H]1C[C@@H](C)C(=O)[C@H](C)[C@H]2OC(=O)O[C@]2(C)[C@@H](CC)OC(=O)[C@H](C)[C@@H](OC(=O)Cc2cccnc2)[C@H](C)[C@H]1O[C@@H]1O[C@H](C)C[C@H](N(C)C)[C@H]1O` ?
Result: 2 µg/mL

---

test system: Staphylococcus aureus; test: Antibacterial activity against methicillin-resistant Staphylococcus aureus 01-429 by broth microdilution method; type: functional
ATTRIBUTE MEASURED: MIC (µg/mL)
Only the number, expressed in µg/mL, is required.

In the examples that follow, each entry is paired with its recorded MIC.
C=CCO[C@@H]1C[C@@H](C)C(=O)[C@H](C)[C@H]2OC(=O)O[C@]2(C)[C@@H](CC)OC(=O)[C@H](C)[C@@H](OC(=O)CCc2c[nH]c3ccccc23)[C@H](C)[C@H]1O[C@@H]1O[C@H](C)C[C@H](N(C)C)[C@H]1O	32
C=CCO[C@@H]1C[C@@H](C)C(=O)[C@H](C)[C@H]2OC(=O)O[C@]2(C)[C@@H](CC)OC(=O)[C@H](C)[C@@H](OC(=O)Cc2ccc3c(c2)OCO3)[C@H](C)[C@H]1O[C@@H]1O[C@H](C)C[C@H](N(C)C)[C@H]1O	32
C=CCO[C@@H]1C[C@@H](C)C(=O)[C@H](C)[C@H]2OC(=O)O[C@]2(C)[C@@H](CC)OC(=O)[C@H](C)[C@@H](OC(=O)Cc2c[nH]c3ccccc23)[C@H](C)C1O[C@@H]1O[C@H](C)C[C@H](N(C)C)[C@H]1O (some centres undefined)	16

Turning now to a further molecule:
Request: Which MIC reading was recorded for the molecule `C=CCO[C@@H]1C[C@@H](C)C(=O)[C@H](C)[C@H]2OC(=O)O[C@]2(C)[C@@H](CC)OC(=O)[C@H](C)[C@@H](OC(=O)Cc2cccc(F)c2)[C@H](C)[C@H]1O[C@@H]1O[C@H](C)C[C@H](N(C)C)[C@H]1O` ?
Result: 16

---

tested on: Staphylococcus aureus; test: Antibacterial activity against methicillin-sensitive Staphylococcus aureus 01-431 by broth microdilution method; format: functional
Some compounds, each annotated with its measured MIC.
Only the number, expressed in µg/mL, is required.

C=CCO[C@@H]1C[C@@H](C)C(=O)[C@H](C)[C@H]2OC(=O)O[C@]2(C)[C@@H](CC)OC(=O)[C@H](C)[C@@H](OC(=O)Cc2ccccc2Cl)[C@H](C)[C@H]1OC1O[C@H](C)C[C@H](N(C)C)[C@H]1O (stereo not given in full)	1
C=CCO[C@@H]1C[C@@H](C)C(=O)[C@H](C)[C@H]2OC(=O)O[C@]2(C)[C@@H](CC)OC(=O)[C@H](C)[C@@H](OC(=O)Cc2cccnc2)[C@H](C)[C@H]1O[C@@H]1O[C@H](C)C[C@H](N(C)C)[C@H]1O	1
C=CCO[C@@H]1C[C@@H](C)C(=O)[C@H](C)[C@H]2OC(=O)O[C@]2(C)[C@@H](CC)OC(=O)[C@H](C)[C@@H](OC(=O)Cc2ccc3c(c2)OCO3)[C@H](C)[C@H]1O[C@@H]1O[C@H](C)C[C@H](N(C)C)[C@H]1O	0.5
C=CCO[C@@H]1C[C@@H](C)C(=O)[C@H](C)[C@H]2OC(=O)O[C@]2(C)[C@@H](CC)OC(=O)[C@H](C)[C@@H](OC(=O)Cc2cccc(F)c2)[C@H](C)[C@H]1O[C@@H]1O[C@H](C)C[C@H](N(C)C)[C@H]1O	1

Turning now to a further compound:
Request: Which MIC reading was recorded for the compound `CC[C@H]1OC(=O)[C@H](C)[C@@H](O[C@H]2C[C@@](C)(OC)[C@@H](O)[C@H](C)O2)[C@H](C)[C@@H](O[C@@H]2O[C@H](C)C[C@H](N(C)C)[C@H]2O)[C@](C)(OC)C[C@@H](C)C(=O)[C@H](C)[C@@H](O)[C@]1(C)O` ?
Result: 0.25
